# SYSTEM_NAME: full-length beta-Catenin (Uniprot ID P35222) (Homo sapiens (Human)) (UniProt P35222)
# Sequence (P35222 whole entry): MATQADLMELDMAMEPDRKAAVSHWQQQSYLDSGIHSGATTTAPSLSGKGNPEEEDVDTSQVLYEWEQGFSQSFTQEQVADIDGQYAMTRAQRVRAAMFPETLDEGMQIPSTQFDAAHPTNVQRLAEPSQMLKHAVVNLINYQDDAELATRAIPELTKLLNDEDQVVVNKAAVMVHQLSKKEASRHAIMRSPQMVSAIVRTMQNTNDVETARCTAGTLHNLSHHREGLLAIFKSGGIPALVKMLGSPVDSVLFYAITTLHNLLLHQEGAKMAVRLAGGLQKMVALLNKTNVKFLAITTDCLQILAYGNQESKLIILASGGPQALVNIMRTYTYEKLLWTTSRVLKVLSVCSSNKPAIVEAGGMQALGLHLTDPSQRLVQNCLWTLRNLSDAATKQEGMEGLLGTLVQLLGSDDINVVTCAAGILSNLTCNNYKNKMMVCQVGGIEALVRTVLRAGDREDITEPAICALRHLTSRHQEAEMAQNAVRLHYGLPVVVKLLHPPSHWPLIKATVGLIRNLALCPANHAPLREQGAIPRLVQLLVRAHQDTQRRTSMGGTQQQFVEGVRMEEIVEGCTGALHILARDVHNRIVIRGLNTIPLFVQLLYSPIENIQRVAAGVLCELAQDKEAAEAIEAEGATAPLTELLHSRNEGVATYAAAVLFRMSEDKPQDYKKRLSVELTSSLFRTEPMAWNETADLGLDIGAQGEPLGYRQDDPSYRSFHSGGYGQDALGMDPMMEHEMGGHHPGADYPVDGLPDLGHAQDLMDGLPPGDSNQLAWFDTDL
# ASSAY_INFO: fluorescence polarization competition; peptide titrated against 10 nM full-length beta-catenin + 10 nM 5FAM-TCF4(10-53) probe
pEC50: −log10 of the molar value. Starred links: 1 amine or outer side, 2 acyl side, 3 side chain; linkers in the order of their positions; H or OH if unused. Positions of bridges follow the written chain, without caps; N, C: chain ends. Non-standard residues stand in square brackets, D forms with d. Primed or numbered codes have the meaning given here. *: point of attachment. Tf = trifluoromethylsulfonyl on Dap side-chain N ([Tf]Dap = (S)-2-amino-3-((trifluoromethyl)sulfonamido)propanoic acid), O=S(=O)(C(F)(F)F)*; B5(16) = 2-amino-2-(pent-4-en-1-yl)hept-6-enoic acid = 2,2-bis(4-pentenyl)glycine (stitching residue), C=CCCCC(CCCC=C)(N[*:1])C(=O)[*:2]; B5(4) = 2,2-bis(4-pentenyl)glycine = 2-amino-2-(pent-4-en-1-yl)hept-6-enoic acid (stitching residue), C=CCCCC(CCCC=C)(N[*:1])C(=O)[*:2]; B5 = 2-amino-2-(pent-4-en-1-yl)hept-6-enoic acid, C=CCCCC(CCCC=C)(N[*:1])C(=O)[*:2]; Bta = N[C@@H](Cc1csc2ccccc12)C(=O)O; αAllylPro = C=CC[C@@]1(C(=O)O)CCCN1; Cha = N[C@@H](CC1CCCCC1)C(=O)O; Cit = NC(=O)NCCC[C@H](N)C(=O)O; S8 = C=CCCCCCC[C@](C)(N)C(=O)O; Dap = NC[C@H](N)C(=O)O
Tag: criterion met if measured pEC50 is not below 7, criterion not met if it is.

{"columns": ["BINDER", "LABEL_CLASS"],
 "data": [
  ["Ac-[αAllylPro]D[Cha][B5(16)]DEAAFN[S8]F[Bta]Q-NH2 (staple 1-4, 4-11; also: later-eluting staple isomer composition) [I-620]", "criterion met"],
  ["Ac-[αAllylPro]DL[B5(4)]DEAAFN[S8]F[Bta]-NH2 (staple 1-4, 4-11; also: earlier-eluting staple isomer) [I-624]", "criterion not met"],
  ["Ac-[αAllylPro]DL[B5(4)]DEAAF[Cit][S8]F[Bta]Q-NH2 (staple 1-4, 4-11) [I-621]", "criterion met"],
  ["Ac-[αAllylPro]D[Cha][B5(4)]DEAAFN[S8]F[Bta]-NH2 (staple 1-4, 4-11; also: earlier-eluting staple isomer) [I-626]", "criterion not met"],
  ["Ac-[αAllylPro]D[Cha][B5]DEAAFN[S8]F[Bta]H-NH2 (staple 1-4, 4-11) [I-615]", "criterion met"],
  ["Ac-[αAllylPro]DI[B5(4)][Dap](Tf)EAAFQ[S8]F[Bta]Q-NH2 (staple 1-4, 4-11) [I-630]", "criterion not met"]
]}
